B1: POMT2 (parent)
chain: VKYNSCADRPFSAPWWFWLSLTGV

Variants of: B1
testSummary: protein stability index of a GFP-peptide fusion (GPS, HEK-293T) (PSI 1-6); higher = more stable;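 further: lentivirally expressed fusions sorted by FACS into six bins by GFP to DsRed ratio, PSI derived from sequencing read proportions per bin multiplied by bin number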
runParameters: c terminus: a fixed tail appended
Rule: yes for protein stability index not less than 2, no for anything less.

{"mutationString": "G23W", "assignedCategory": "no"}
{"mutationString": "W18V", "assignedCategory": "yes"}
{"mutationString": "G23I", "assignedCategory": "yes"}
{"mutationString": "Y3D", "assignedCategory": "yes"}
{"mutationString": "V24T", "assignedCategory": "no"}

The values you see were collected from the supplement of paper PMC10567573.
